Tested on: secretion of gastric acid
Assay: Inhibitory action against the secretion of gastric acid (Test II), Heidenhain pouch dogs, histamine stimulated
Format: in vivo, male beagle dogs
Settings: Canis lupus familiaris; Heidenhain pouch dog, histamine 160 ug/kg/hr, intravenous, 3 mg/kg; read-out: Suppresive action on secretion of gastric acid (%)
// label = 1 (yes) if inhibition in vivo at 3 mg/kg is not less than 80%, otherwise 0 (no)

>  <compound>
CNc1ccccc1C[S+]([O-])c1nc2c([nH]1)CCCC2 (stereo not shown)

>  <target-or-system>
secretion of gastric acid

>  <label>
0 (no)

$$$$
>  <compound>
[O-][S+](Cc1ccccc1NCc1ccccc1)c1ncc[nH]1 (stereo not shown)

>  <target-or-system>
secretion of gastric acid

>  <label>
0 (no)

$$$$
>  <compound>
CC(C)Nc1ccccc1C[S+]([O-])c1ncc[nH]1 (stereo not shown)

>  <target-or-system>
secretion of gastric acid

>  <label>
0 (no)

$$$$
>  <compound>
CC(C)CNc1ccccc1CSc1ncc[nH]1 [Example No. 9, 2-[(2-isobutylamino)benzylthio]imidazole]

>  <target-or-system>
secretion of gastric acid

>  <label>
0 (no)

$$$$
>  <compound>
CNc1ccccc1C[S+]([O-])c1nc(C)c[nH]1 (stereo not shown)

>  <target-or-system>
secretion of gastric acid

>  <label>
0 (no)

$$$$
>  <compound>
COc1cccc(NCC(C)C)c1C[S+]([O-])c1ncc[nH]1 (stereo not shown)

>  <target-or-system>
secretion of gastric acid

>  <label>
1 (yes)

$$$$
>  <compound>
CNc1ccc(C)cc1C[S+]([O-])c1ncc[nH]1 (stereo not shown)

>  <target-or-system>
secretion of gastric acid

>  <label>
1 (yes)

$$$$

====

Test system: secretion of gastric acid
Test: Inhibitory action against the secretion of gastric acid (Test II), Heidenhain pouch dogs, histamine stimulated
Type: in vivo, male beagle dogs
Details: Canis lupus familiaris; Heidenhain pouch dog, histamine 160 ug/kg/hr, intravenous, 3 mg/kg; read-out: Suppresive action on secretion of gastric acid (%)
measurement-label: inhibition in vivo at 3 mg/kg (%)

>  <compound>
CCNc1ccccc1C[S+]([O-])c1ncc[nH]1 (stereo not drawn)

>  <measurement-label>
inhibition in vivo at 3 mg/kg

>  <endpoint-unit>
%

>  <value-observed>
80

$$$$
>  <compound>
CC(C)CNc1ccccc1C[S+]([O-])c1ncc[nH]1 (stereo not drawn)

>  <measurement-label>
inhibition in vivo at 3 mg/kg

>  <endpoint-unit>
%

>  <value-observed>
81

$$$$
>  <compound>
COc1ccc(NCC(C)C)c(C[S+]([O-])c2ncc[nH]2)c1 (stereo not drawn)

>  <measurement-label>
inhibition in vivo at 3 mg/kg

>  <endpoint-unit>
%

>  <value-observed>
81

$$$$
